The measured values listed here are drawn from ChEMBL document CHEMBL1156573.

experimental.system: Cannabinoid receptor 1 (Homo sapiens) (UniProt P21554)
Sequence (P21554 whole entry): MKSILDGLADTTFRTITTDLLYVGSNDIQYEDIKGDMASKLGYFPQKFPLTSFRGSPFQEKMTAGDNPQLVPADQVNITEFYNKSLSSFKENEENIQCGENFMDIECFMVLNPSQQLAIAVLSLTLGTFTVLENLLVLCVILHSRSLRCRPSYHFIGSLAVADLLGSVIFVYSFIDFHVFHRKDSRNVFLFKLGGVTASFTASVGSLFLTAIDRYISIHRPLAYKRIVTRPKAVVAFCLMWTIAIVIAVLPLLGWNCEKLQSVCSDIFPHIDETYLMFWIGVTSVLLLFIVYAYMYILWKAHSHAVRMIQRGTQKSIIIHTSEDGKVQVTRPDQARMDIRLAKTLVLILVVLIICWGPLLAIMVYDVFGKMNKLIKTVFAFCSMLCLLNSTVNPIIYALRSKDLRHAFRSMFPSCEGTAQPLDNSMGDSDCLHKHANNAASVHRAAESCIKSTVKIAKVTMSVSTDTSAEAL
procedure.text: Agonist activity at human CB1 receptor expressed in CHO cells at 3 uM by [35S]GTPgammaS assay relative to CP-55940
Assay type: functional, cell-based
Note to self: values exactly at 40% are 1 (yes). So Emax at or above 40% is 1 (yes), below is 0 (no).

- structure.string: "CCCCCCN1C(=O)/C(=N\\NC(=O)c2cccc3ccccc23)c2ccccc21"
  experimental.system: "Cannabinoid receptor 1 (Homo sapiens) (UniProt P21554)"
  classification: "0 (no)"
- structure.string: "O=C(N/N=C1\\C(=O)N(Cc2ccccc2)c2ccccc21)c1ccccc1"
  experimental.system: "Cannabinoid receptor 1 (Homo sapiens) (UniProt P21554)"
  classification: "1 (yes)"
- structure.string: "CCCCCCN1C(=O)/C(=N\\NC(=O)C23CC4CC(CC(C4)C2)C3)c2ccccc21"
  experimental.system: "Cannabinoid receptor 1 (Homo sapiens) (UniProt P21554)"
  classification: "0 (no)"
- structure.string: "CCCCN1C(=O)/C(=N\\NC(=O)c2ccccc2)c2ccccc21"
  experimental.system: "Cannabinoid receptor 1 (Homo sapiens) (UniProt P21554)"
  classification: "1 (yes)"

---

experimental.system: Cannabinoid receptor 1 (Homo sapiens) (UniProt P21554)
procedure.text: Displacement of [3H]CP-55940 from human CB1 receptor expressed in CHO cells at 1 uM by liquid scintillation counting
Assay type: cell-based

- structure.string: "CCCCCCN1C(=O)/C(=N\\NC(=O)C23CC4CC(CC(C4)C2)C3)c2ccccc21"
  experimental.system: "Cannabinoid receptor 1 (Homo sapiens) (UniProt P21554)"
  uom: "%"
  Activity: 82.6
- structure.string: "CCCCCN1C(=O)/C(=N\\NC(=O)c2ccccc2)c2cc(I)ccc21"
  experimental.system: "Cannabinoid receptor 1 (Homo sapiens) (UniProt P21554)"
  uom: "%"
  Activity: 25
- structure.string: "CCCCCCN1C(=O)/C(=N\\NC(=O)OC(C)(C)C)c2ccccc21"
  experimental.system: "Cannabinoid receptor 1 (Homo sapiens) (UniProt P21554)"
  uom: "%"
  Activity: 85.1
- structure.string: "CCCCCCN1C(=O)/C(=N\\NC(=O)c2ccccc2)c2cccc(C)c21"
  experimental.system: "Cannabinoid receptor 1 (Homo sapiens) (UniProt P21554)"
  uom: "%"
  Activity: 67
- structure.string: "O=C(N/N=C1\\C(=O)N(c2ccccc2)c2ccccc21)c1ccccc1"
  experimental.system: "Cannabinoid receptor 1 (Homo sapiens) (UniProt P21554)"
  uom: "%"
  Activity: 18
- structure.string: "CCCCCCN1C(=O)/C(=N\\NC(=O)c2cccc3ccccc23)c2ccccc21"
  experimental.system: "Cannabinoid receptor 1 (Homo sapiens) (UniProt P21554)"
  uom: "%"
  Activity: 83.9
- structure.string: "CCCCCCN1C(=O)/C(=N/NC(=O)OC(C)(C)C)c2ccccc21"
  experimental.system: "Cannabinoid receptor 1 (Homo sapiens) (UniProt P21554)"
  uom: "%"
  Activity: 75
- structure.string: "CCCCCCN1C(=O)/C(=N\\NC(=O)C2CCCCC2)c2ccccc21"
  experimental.system: "Cannabinoid receptor 1 (Homo sapiens) (UniProt P21554)"
  uom: "%"
  Activity: 65.8
- structure.string: "CCCCCN1C(=O)/C(=N\\NC(=O)c2ccccc2)c2ccccc21"
  experimental.system: "Cannabinoid receptor 1 (Homo sapiens) (UniProt P21554)"
  uom: "%"
  Activity: 95
- structure.string: "O=C(N/N=C1\\C(=O)N(Cc2ccccc2)c2ccccc21)c1ccccc1"
  experimental.system: "Cannabinoid receptor 1 (Homo sapiens) (UniProt P21554)"
  uom: "%"
  Activity: 87
